# measurement.target: T1, CRBN, Q96SW2;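 further: pooled lentiviral library of zinc finger degron-EGFP fusions in mCherry-positive Jurkat cells, FACS-sorted after compound exposure, with degron abundance counted by next-generation sequencing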
# T1 chain: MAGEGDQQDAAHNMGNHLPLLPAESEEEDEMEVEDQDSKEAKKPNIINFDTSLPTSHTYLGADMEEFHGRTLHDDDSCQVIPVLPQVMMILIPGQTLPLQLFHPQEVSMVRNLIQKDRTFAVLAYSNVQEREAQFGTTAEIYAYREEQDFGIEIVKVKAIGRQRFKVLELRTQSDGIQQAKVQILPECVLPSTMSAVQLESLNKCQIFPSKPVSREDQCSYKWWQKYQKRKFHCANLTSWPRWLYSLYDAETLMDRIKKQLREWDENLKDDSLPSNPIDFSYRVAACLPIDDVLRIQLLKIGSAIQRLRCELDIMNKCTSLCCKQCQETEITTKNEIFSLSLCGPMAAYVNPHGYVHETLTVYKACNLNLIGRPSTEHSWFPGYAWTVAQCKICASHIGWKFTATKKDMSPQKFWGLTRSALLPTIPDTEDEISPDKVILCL
# test: log2 fold change of degron read counts, EGFP-low vs EGFP+ sorted cells (limma voom), compound-induced degradation; higher = more compound-induced degradation of the degron-EGFP fusion; degrons are variants of IKZF1/3 zinc finger 2; compound dose not given here
# conditions.used: Jurkat; 18 h; compound: thalidomide
Over roughly 8,300 sequences, “log2 fold change of degron read counts, EGFP-low vs EGFP+ sorted cells (limma voom), compound-induced degradation” has its median near -1.1; the highest 2% begin near 3.2. The sample as a whole holds a higher share of the highest values than the screen did.
readout.label: log2 fold change of degron read counts
Form rule: numeric answer, no unit written next to it.

Solved entries:
FDCDICGAAFTQKGNLLRHIKL [46F_47D_49D_50I_52G_53A_54A_55F_67L_, Q9UKT9] : -0.827
FTCSVCGHFFTQKGNLLRHIKL [46F_47T_49S_50V_52G_53H_54F_55F_67L_, Q9UKT9] : -2.2
FLCEICGRNFTQKGNLLRHIKL [46F_47L_49E_50I_52G_53R_54N_55F_67L_, Q9UKT9] : -0.409
FCCDQCGAVFTQKGNLLRHIKL [46F_47C_49D_50Q_52G_53A_54V_55F_67L_, Q9UKT9] : -2.14
LGCEICGFFCTQKGNLLRHIKL [46L_47G_49E_50I_52G_53F_54F_55C_67L_, Q9UKT9] : 0.198

Problem: Quick one: give measured log2 fold change of degron read counts for FICPICGRHFTQKGNLLRHIKL [46F_47I_49P_50I_52G_53R_54H_55F_67L_, Q9UKT9]
Result: 0.569

Problem: Quick one: give measured log2 fold change of degron read counts for FFCEICGRCFTQKGNLLRHIKL [46F_47F_49E_50I_52G_53R_54C_55F_67L_, Q9UKT9]
Result: -0.767

All figures here come from the supplement of paper PMC12645437.
